target: N. crassa LAD (Neurospora crassa, UniProt Q7SI09); conditions: relative to L-arabinitol = 100; 25° C., 50 mM Tris pH 8.0, saturated NAD+
OBSERVATION_TYPE: % Activity (%)
Report only the number, with the unit % understood.

# annotated cases, reported % Activity shown
INSERT INTO measurements (molecule, experimental_system, observation_type, unit, recorded_number) VALUES
  ('OC[C@@H](O)C(O)[C@H](O)CO [D-Arabinitol, D-arabinitol]', 'N. crassa LAD (Neurospora crassa, UniProt Q7SI09)', '% Activity', '%', 0),
  ('OC[C@@H](O)[C@@H](O)[C@H](O)[C@H](O)CO [D-Mannitol, D-mannitol]', 'N. crassa LAD (Neurospora crassa, UniProt Q7SI09)', '% Activity', '%', 0),
  ('OC[C@@H](O)[C@@H](O)[C@@H](O)CO [Adonitol, adonitol]', 'N. crassa LAD (Neurospora crassa, UniProt Q7SI09)', '% Activity', '%', 46),
  ('OC[C@H](O)C(O)[C@@H](O)CO [L-Arabinitol, L-arabinitol]', 'N. crassa LAD (Neurospora crassa, UniProt Q7SI09)', '% Activity', '%', 100);

Now take the following molecule into account.
Input: Using the record for OC[C@@H](O)[C@H](O)[C@@H](O)CO [Xylitol, xylitol] , report its % Activity.
Output: 4.9

Source of measurements: patent US8114638B2
